Cited source for all entries: patent US20080033017A1

# Tested on: R. SANGUINEUS
# assay.name: Comparative tick control on dogs, R. sanguineus, percent control
# Type: in vivo, Rhipicephalus sanguineus
# condition.info: Study Day 2, single topical treatment
measurement.kind: Percent control R. sanguineus (%)

{"compound": "CO[C@H]1C[C@H](O[C@@H]2/C(C)=C/C[C@@H]3C[C@@H](C[C@]4(CC[C@H](C)[C@@H](C5CCCCC5)O4)O3)OC(=O)[C@@H]3C=C(C)/C(=N/O)[C@H]4OC/C(=C\\C=C\\[C@@H]2C)[C@]43O)O[C@@H](C)[C@@H]1O", "measured.number": 48.5}
{"compound": "O=[N+]([O-])N=C1NCCN1Cc1ccc(Cl)nc1", "measured.number": 42.4}
{"compound": "CC1(C)C(C=C(Cl)Cl)C1C(=O)OCc1cccc(Oc2ccccc2)c1 (stereo not shown)", "measured.number": 75.0}
{"compound": "N#Cc1nn(-c2c(Cl)cc(C(F)(F)F)cc2Cl)c(N)c1[S+]([O-])C(F)(F)F (stereo not shown)", "measured.number": 100}
